Target: T1, canine CTLA-4 (cCTLA-4) recombinant protein (canine, UniProt Q9XSI1 38-161, limits assumed)
T1 construct: also called canine Cytotoxic T-Lymphocyte-Associated protein 4; CD152
T1 chain: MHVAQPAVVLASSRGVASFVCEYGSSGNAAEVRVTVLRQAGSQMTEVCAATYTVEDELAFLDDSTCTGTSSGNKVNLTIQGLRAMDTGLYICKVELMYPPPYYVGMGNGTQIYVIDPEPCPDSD
Experiment: ELISA: cCTLA-4 coated at 200 ng/well, three-fold antibody dilutions, HRP anti-canine IgG Fc, OD450/540 (Example 3)
measurementType: EC50 (read off the curve)

For orientation, consider the following solved cases.
binder	EC50 (read off the curve)
Mouse-canine chimeric antibody 27G12 (antibody, V domains shown, Mouse variable regions fused to canine constant heavy chain and canine kappa; HEK 293, protein A) VH: QIQLVQSGPELKKPGETVKISCKASGYTFTTYGVSWVKQAPGKGLRWMGWINTYSGMPTYVDDFKGRFAFSLETSASTAFLQINNLKNEDTAIYFCARRGISFDYWGQGTTLTVSS VL: DVLMTQTPLSLPVSLGDHASISCKSSQSIVYINGNTYLEWYLQKPGQSPKLLIYKVSKRFSGVPDRFSGSGSGTDFTLKISRVEAEDLGVYYCFQGSHVPWTFGGGTKLEIKR	~2 ng/mL
Mouse-canine chimeric antibody 12B3 (antibody, V domains shown, expressed in HEK 293 cells, purified on protein A; also called chimera of 12B3) VH: QIQLVQSGPELKKPGETVKISCKASGYTFTNYGMNWVKQAPGKGLKWMGWINTYTGEPTYADDFKGRFAFSLETSASTAYLQINNLKNEDMATYFCARRSIYYPYWGQGTTLTVSS VL: DVLMTQTPLSLPVSLGDQASISCRSSQSIVYSNGNTYLEWYLQKPGQSPKLLIYKVSNRFSGVPDRFSGSGSGTDFTLKISRVEAEDLGVYYCFQGSHVPWTFGGGTKLEIKR	~5 ng/mL
Mouse-canine chimeric antibody 45A9 (antibody, V domains shown, Mouse variable regions fused to canine constant heavy chain and canine kappa; HEK 293, protein A) VH: QIQLVQSGPELKKPGETVKISCKASGYTFTNYGMNWVKQAPGKGLKWMGWINTYTGEPTYADDFKGRFAFSLETSASTAYLQINNLKNEDTATYFCARRGTYYRPWGQGTTLTVSS VL: DVLMTQTPLSLPVSLGDQASISCRSSQSIVYSHGNTYLEWYLQKPGQSPKVLIYKVSNRFSGVPDRFSGSGSGTDFTLKISRVEAEDLGVYYCFQGSHVPWTFGGGTKLEIKR	~2 ng/mL
Mouse-canine chimeric antibody 39A11 (antibody, V domains shown, Mouse variable regions fused to canine constant heavy chain and canine kappa; HEK 293, protein A; also called chimera of 39A11) VH: EVKLVESGGGLVQPGGSLSLSCATSGFTFSDYYMSWVRQSPGKALEWMGFIRNKANGYTTEYSASLKGRFTISRDNSQSILYLQMNVLRAEDSATYYCVRFGLMYYFDYWGQGTTLTVSS VL: ENVLIQSPAIMSASPGEKVTMTCRASSSVSSSYLHWYQQKSGASPKLWIFSTSNLASGVPARFSGSGSGTSYSLTINSVEAEDAATYYCQQYSGLPLTFGGGTKLEIKR	~9 ng/mL
Mouse-canine chimeric antibody 110E3 (antibody, V domains shown, Mouse variable regions fused to canine constant heavy chain and canine kappa; HEK 293, protein A) VH: QIQLVQSGPELKKPGETVKISCKASGYTFTNYGMNWVKQAPGKGLKWMGWINTYTGEPTYADDFKGRVAFSLETSASTAFLQINNLKNEDTATYFCARRGVRLDYWGQGTTLTVSS VL: DVLMTQTPLSLPVSLGDQASISCRSSQSIVYISGSTYLEWYLQKPGQSPKLLIYKVSSRFSGVPDRFSGSGSGTDFTLKISRVEAEDLGVYYCFQGSHVPWTFGGGTKLEIKR	~2 ng/mL

Please report the recorded EC50 (read off the curve) for Mouse-canine chimeric antibody 22A11 (antibody, V domains shown, Mouse variable regions fused to canine constant heavy chain and canine kappa; HEK 293, protein A) VH: QVQLQQPGTELVKPGASVKLSCKASGYTFTSYWMHWVKQRPGQGLEWIGNINPSNGGTRFNEKFKNKATLTEDKSSSTAYMQLSSLTSEDSAVYYCARSNYGSGWAWFAYWGQGTLVTVSA VL: DIQMNQSPSSLSASLGDTITITCHASQNINVWLSWYQQKPGNIPKLLIYKSSNLHTGVPSRFSGSGSGTGFTLTISSLQPEDIATYYCQQGQSYPWTFGGGTKLEIKR .
~0.7 ng/mL
